meta.source: PubChem BioAssay AID1626

assay: M. tuberculosis H37Rv growth inhibitors, H37Rv strain (AID 1626); conditions: hits give high values, concentration not given here;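 note: bacteria incubated seven days before Alamar blue readout; 0% = bacteria only wells and 100% = bacteria with antibiotic wells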
In all, about 220,000 compounds went through this assay and about 2,000 (0.91%) were called active. Inconclusive results (about 2%) are left out. Not all results are given here. Results with a measured potency or affinity are listed apart.

molecule	units	inhibition
Cc1cc(C)cc(NC(=O)C2CCCC2)c1	%	-9.17
CC1CCCCN1CC(=O)Nc1ccc(N2CCCCCC2)cc1 (configuration not stated)	%	7.03
CC(=O)Nc1nc2ccccc2n1CCN1CCOCC1	%	-6.15
CCN(CC(=O)NCc1ccc(F)cc1)CC(=O)Nc1ccccc1-c1ccccc1	%	-6.65
CCN(CC)CCn1c(NC(=O)c2ccc(Cl)cc2)nc2ccccc21	%	57.6
Cc1ccnc(NS(=O)(=O)c2ccc(Cl)nc2)c1	%	-4.15
COC(=O)C1C(O)=C(C=Nc2ccccc2)C(=O)CC1(C)C (configuration not stated)	%	18
